IC50 values by entry
# Tested target: Metallo-beta-lactamase type 2 (Klebsiella pneumoniae)
# Method: Inhibition of Klebsiella pneumoniae metallo-beta-lactamase NDM-1 expressed in Escherichia coli BL21(DE3) cells preincubated for 60 min followed by addition of cefazolin as substrate by spectrometry method
# number only, unit µM dropped from output

[[record]]
structure = "CCCCc1ccc(NC(=O)CSc2nnc(-c3ccc(O)cc3)[nH]2)cc1"
obs_value = 0.48

[[record]]
structure = "O=C(CSc1nnc(-c2ccccc2O)[nH]1)Nc1ccccc1Cl"
obs_value = 0.98

[[record]]
structure = "CCCCc1ccc(NC(=O)CSc2nnc(-c3ccccc3N)[nH]2)cc1"
obs_value = 0.16

[[record]]
structure = "O=C(CSc1nnc(-c2ccccc2)[nH]1)Nc1ccccc1Cl"
obs_value = 0.35

[[record]]
structure = "O=C(CSc1nnc(-c2ccccc2O)[nH]1)Nc1ccccc1"
obs_value = 0.42


What value of IC50 has been reported for the following compound? `CCc1ccccc1NC(=O)CSc1nnc(-c2ccccc2O)[nH]1`
0.93

---

# Tested target: Metallo-beta-lactamase type 2 (Klebsiella pneumoniae)
# Method: Inhibition of Klebsiella pneumoniae metallo-beta-lactamase NDM-1 expressed in Escherichia coli BL21(DE3) cells preincubated for 60 min followed by addition of cefazolin as substrate by spectrometry method
Known pIC50 of a selection of compounds
Convention used: pIC50 is expressed as -log10 of the molar concentration.

[[record]]
structure = "CCc1ccccc1NC(=O)CSc1nnc(-c2ccccc2N)[nH]1"
obs_value = 6.35

[[record]]
structure = "Nc1ccccc1-c1nnc(SCC(=O)Nc2ccccc2Cl)[nH]1"
obs_value = 6.21

[[record]]
structure = "CCCCc1ccc(NC(=O)CSc2nnc(-c3ccccc3O)[nH]2)cc1"
obs_value = 6.80

[[record]]
structure = "O=C(CSc1nnc(-c2ccc(O)cc2)[nH]1)Nc1ccccc1"
obs_value = 5.92

[[record]]
structure = "Cc1ccccc1NC(=O)CSc1nnc(-c2ccc(O)cc2)[nH]1"
obs_value = 6.01


// moving on: another record for pIC50
Could you share which pIC50 value was measured for `O=C(CSc1nnc(-c2ccccc2)[nH]1)Nc1cccc(Cl)c1` ?
6.16

---

Catalogue of pIC50 values
# Tested target: Metallo-beta-lactamase type 2 (Klebsiella pneumoniae, UniProt C7C422)
# Sequence (C7C422 whole entry): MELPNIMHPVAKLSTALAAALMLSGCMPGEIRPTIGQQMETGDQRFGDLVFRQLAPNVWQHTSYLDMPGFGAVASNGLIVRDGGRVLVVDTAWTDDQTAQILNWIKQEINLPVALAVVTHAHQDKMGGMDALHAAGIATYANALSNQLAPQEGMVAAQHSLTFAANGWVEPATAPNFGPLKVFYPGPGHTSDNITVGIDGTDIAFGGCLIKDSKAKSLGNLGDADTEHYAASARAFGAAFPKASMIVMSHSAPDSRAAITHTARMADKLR
# Method: Inhibition of Klebsiella pneumoniae metallo-beta-lactamase NDM-1 expressed in Escherichia coli BL21(DE3) cells preincubated for 60 min followed by addition of cefazolin as substrate by spectrometry method
pIC50 is a log-scale quantity: -log10 of the concentration expressed in molar.

The cases that follow already have their pIC50 on record.
[[record]]
structure = "CCCCc1ccc(NC(=O)CSc2nnc(-c3ccccc3)[nH]2)cc1"
obs_value = 6.82

[[record]]
structure = "Cc1ccccc1NC(=O)CSc1nnc(-c2ccccc2O)[nH]1"
obs_value = 6.80

[[record]]
structure = "O=C(CSc1nnc(-c2ccccc2O)[nH]1)Nc1cccc(Cl)c1"
obs_value = 6.80


Name the recorded pIC50 for `O=C(CSc1nnc(-c2ccc(O)cc2)[nH]1)Nc1cccc(Cl)c1` .
6.43

Using the record for `O=C(CSc1nnc(-c2ccc(O)cc2)[nH]1)Nc1ccccc1Cl` , report its pIC50.
6.28

Reported pIC50, compound `Nc1ccccc1-c1nnc(SCC(=O)Nc2cccc(Cl)c2)[nH]1` : ____
6.64

Requested field: pIC50. Item: `Cc1ccccc1NC(=O)CSc1nnc(-c2ccccc2N)[nH]1`
5.72
